tested on: enzyme derived from Sphingobacterium sp. strain FERM BP-8124 (SP-Sepharose HP fraction enzyme); assay: Enzyme substrate specificity (11), (12): peptide production; assay type: biochemical; set-up: key: +: those peptides for which production was confirmed but which were unable to be quantified due to the absence of a standard; a trace amount; conditions: carboxy component 100 mM, amine component 150 mM, 0.33 units enzyme, pH 9.0, 25° C., 1.5 hours
Where a SMILES comes first, the peptide text is derived from it.
measurement.type: Produced peptide (Table 15-3)

CSCC[C@H](NC(=O)[C@@H](N)CCCN=C(N)N)C(=O)O [L-Arg-L-Met] (H-Arg-Met-OH) ... tr
NC(N)=NCCC[C@H](N)C(=O)N[C@@H](Cc1ccccc1)C(=O)O [L-Arg-L-Phe] ... tr
NCC(=O)N[C@@H](Cc1ccccc1)C(=O)O [Gly-L-Phe] (H-Gly-Phe-OH) ... 20.0 mM
